Hello, the source for this data is paper PMC8368996, in case you need it.

pKd by entry:
Molecular target: NEDD4L WW4 domain
Sequence (chain, as listed by the source): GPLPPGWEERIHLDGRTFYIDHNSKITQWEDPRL
Test: FP
pKd: −log10 of the molar value. Ends that are not written are not given here. Oregon Green 488 maleimide = Oregon Green 488 maleimide fluorescent label attached to the N-terminal cysteine
MEASUREMENT_TYPE: pKd

                                     binder  relation_sign  experimental_result
0  C(Oregon Green 488 maleimide)MQNNEELPTYEEAKV [AMOT PPxY1 peptide (residues 100-114), Oregon Green 488-labelled]              =                 4.22
1  C(Oregon Green 488 maleimide)LMRYQHPPEYGAARP [AMOT PPxY3 peptide (residues 278-292), Oregon Green 488-labelled]              <                 3.40
2  C(Oregon Green 488 maleimide)MEHRGPPPEYPFKGM [AMOT PPxY2 peptide (residues 233-247), Oregon Green 488-labelled]              =                 3.68
